molecular target: human CYP2C19 (Homo sapiens); assay: biochemical
Sequence (P33261 whole entry): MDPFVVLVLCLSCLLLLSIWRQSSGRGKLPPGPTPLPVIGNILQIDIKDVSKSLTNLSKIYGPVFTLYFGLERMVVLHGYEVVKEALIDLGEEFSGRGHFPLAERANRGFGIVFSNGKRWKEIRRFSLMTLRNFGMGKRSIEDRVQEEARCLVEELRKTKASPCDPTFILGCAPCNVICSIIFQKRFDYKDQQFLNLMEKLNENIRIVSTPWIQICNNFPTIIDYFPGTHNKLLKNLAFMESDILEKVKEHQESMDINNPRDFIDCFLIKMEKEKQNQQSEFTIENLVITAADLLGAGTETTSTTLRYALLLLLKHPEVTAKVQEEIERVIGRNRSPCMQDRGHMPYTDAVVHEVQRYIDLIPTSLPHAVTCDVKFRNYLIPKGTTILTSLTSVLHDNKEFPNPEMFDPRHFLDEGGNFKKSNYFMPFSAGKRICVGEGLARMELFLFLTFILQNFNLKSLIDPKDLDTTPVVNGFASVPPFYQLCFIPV
pIC50: −log10 of the molar value.

COMPOUND	pIC50
C=CC(=O)OCCn1c(=O)n(CCOC(=O)C=C)c(=O)n(CCOC(=O)C=C)c1=O	5.40
CCCCCCCCCCCCCCCC[N+](C)(C)CC [Ethylhexadecyldimethylammonium bromide]	4.05
CN(C/C=C/C#CC(C)(C)C)Cc1cccc2ccccc12 [terbinafine, reference compound]	4.50
COC(=O)C1=C(C)NC(C)=C(C(=O)OCCN2CCN(C(c3ccccc3)c3ccccc3)CC2)C1c1cccc([N+](=O)[O-])c1 (stereo not shown) [Manidipine]	5.62
CCCc1ccc(OCC(=O)N2CCN(C(=O)COc3ccc(CCC)cc3OC)CC2)c(OC)c1 [Simetride]	4.77
Cc1cc2c(OCC(CNC(C)(C)C)OC(=O)c3ccccc3)cccc2[nH]1 (stereo not shown) [Bopindolol]	4.62
CC(C(O)c1ccccc1)N(C)CCOC(c1ccccc1)c1ccccc1 (stereo not shown) [Difeterol]	5.15
COC(=O)N[C@H](C(=O)N[C@@H](Cc1ccccc1)[C@@H](O)CN(Cc1ccc(-c2ccccn2)cc1)NC(=O)[C@@H](NC(=O)OC)C(C)(C)C)C(C)(C)C [Atazanavir]	4.44
COC(=O)c1c(Cl)c(Cl)c(C(=O)OC)c(Cl)c1Cl [Chlorthal-dimethyl]	4.68
CCCCCOc1ccccc1/C(=C\SC)n1ccnc1 [Neticonazole]	5.46

====

target: human CYP2D6 (Homo sapiens, UniProt P10635); assay: biochemical; conditions: CYP2D6 IC50 (half-maximal inhibitory concentration)
Sequence (P10635 whole entry): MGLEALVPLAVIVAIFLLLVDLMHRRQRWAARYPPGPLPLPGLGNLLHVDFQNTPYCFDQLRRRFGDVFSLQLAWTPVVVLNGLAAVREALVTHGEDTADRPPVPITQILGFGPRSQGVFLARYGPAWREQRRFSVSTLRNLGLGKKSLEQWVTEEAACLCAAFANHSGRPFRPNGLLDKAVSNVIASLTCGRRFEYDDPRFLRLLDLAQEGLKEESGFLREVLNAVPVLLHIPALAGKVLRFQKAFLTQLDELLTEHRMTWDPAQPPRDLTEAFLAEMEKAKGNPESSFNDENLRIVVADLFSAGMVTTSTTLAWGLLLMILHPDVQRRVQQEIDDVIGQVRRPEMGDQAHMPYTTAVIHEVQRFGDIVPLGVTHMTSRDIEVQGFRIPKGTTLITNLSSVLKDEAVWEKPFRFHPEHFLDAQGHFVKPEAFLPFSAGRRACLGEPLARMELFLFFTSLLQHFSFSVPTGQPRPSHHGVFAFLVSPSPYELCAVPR
pIC50: −log10 of the molar value. Where a name gives a salt, the structure may show the parent alone.
MEASURE_NAME: pIC50

>>> df
                                    compound  value
 0  CC1COC(Cn2cncn2)(c2ccc(Oc3ccc(Cl)cc3)cc2Cl)O1 (stereo not drawn)   4.46
 1  CC[N+](C)(CC)CCOC(=O)C(O)(c1ccccc1)C1CCCCC1 (stereo not drawn) [Oxyphenonium bromide]   6.06
 2  ClC(c1ccccc1)(c1ccccc1)c1ccccc1 [Trityl chloride]   4.21
 3  O=S(=O)(Oc1ccc(Cl)cc1Cl)c1ccccc1 [2,4-Dichlorophenyl benzenesulfonate]   4.19
 4  CCC1COC(Cn2cncn2)(c2ccc(Cl)cc2Cl)O1 (stereo not drawn)   4.34
 5  CN1CCN(CCC(=O)N2c3ccccc3Sc3ccc(C(F)(F)F)cc32)CC1   6.85
 6  CC(CCc1ccccc1)NC(C)C(O)c1ccc(O)cc1 (stereo not drawn)   6.31
 7   CCCN(CCOc1c(Cl)cc(Cl)cc1Cl)C(=O)n1ccnc1   6.28
 8  OC(CN1CCC(Cc2ccc(F)cc2)CC1)c1ccc(Cl)cc1 (stereo not drawn)   6.92
 9  COC(=O)c1c(C(F)F)nc(C(F)(F)F)c(C2=NCCS2)c1CC(C)C   4.26
10         O=S(=O)(c1ccc(Cl)cc1)c1ccc(Cl)cc1   4.39
11  OC(c1ccc(Cl)cc1)(c1ccc(Cl)cc1)C(Cl)(Cl)Cl   4.35
12           CC(O)(c1ccc(Cl)cc1)c1ccc(Cl)cc1   4.26
13  CC(C)[N+](C)(CCOC(=O)C1c2ccccc2Oc2ccccc21)C(C)C [Propantheline bromide]   7.05
14  O=C1c2ccccc2C(=O)C1C(=O)C(c1ccccc1)c1ccccc1   4.49
15  CC(COc1ccccc1)NC(C)C(O)c1ccc(O)cc1 (stereo not drawn) [Isoxsuprine hydrochloride]   6.26
16  Clc1ccc(C2(Cn3cncn3)CC(Br)CO2)c(Cl)c1 (stereo not drawn)   4.68
17  CCCC1COC(Cn2cncn2)(c2ccc(Cl)cc2Cl)O1 (stereo not drawn)   4.43
18  Cc1cc(O)c(C(C)(C)C)cc1Sc1cc(C(C)(C)C)c(O)cc1C   4.61
19  O=C1C(Cl)C(CCl)CN1c1cccc(C(F)(F)F)c1 (stereo not drawn)   4.44
20  CCCCC(O)(Cn1cncn1)c1ccc(Cl)cc1Cl (stereo not drawn)   4.48
